FYI, the data here is from patent US7238813B2.

System Name: GST-TIE2 (intracellular domains of human TIE2) (Homo sapiens)
Sequence (Q02763 762-1104): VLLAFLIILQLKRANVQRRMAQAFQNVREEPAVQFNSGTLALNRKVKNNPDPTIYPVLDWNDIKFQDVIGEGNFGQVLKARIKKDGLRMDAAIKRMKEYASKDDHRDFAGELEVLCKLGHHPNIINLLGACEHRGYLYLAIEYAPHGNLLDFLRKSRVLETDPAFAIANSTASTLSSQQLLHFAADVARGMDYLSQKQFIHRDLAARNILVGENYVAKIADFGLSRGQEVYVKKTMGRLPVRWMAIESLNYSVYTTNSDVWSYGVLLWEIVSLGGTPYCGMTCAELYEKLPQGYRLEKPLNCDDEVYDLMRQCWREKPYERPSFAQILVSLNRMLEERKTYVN
Assay Info: TIE-2 enzyme assay (TIE2-E), LANCE method
Setup Conditions: 80 uM ATP
pIC50: −log10 of the molar value. Where a name gives a salt, the structure may show the parent alone.
Readout Kind: pIC50

Use these answered entries as a reference point.
{"columns": ["Compound", "Reported"],
 "data": [
  ["COC(=O)Nc1nc2cc([S+]([O-])c3ccc(NC(=O)Nc4cc(Cl)ccc4Cl)cc3)ccc2[nH]1 (stereo not shown)", "6.00 to 7.00"],
  ["COC(=O)Nc1nc2cc(Oc3cccc(NC(=O)Nc4cccc(Cl)c4)c3)ccc2[nH]1 [Example 14, hydrochloride]", "6.00 to 7.00"],
  ["O=C(Nc1ccc(Oc2ccc3[nH]c(NC(=O)OCc4ccccc4)nc3c2)cc1)Nc1cc(C(F)(F)F)ccc1F", "> 7.00"]
]}

For `O=C(Nc1ccc(Oc2ccc3nc(NC(=O)c4cccs4)[nH]c3c2)cc1)Nc1cc(C(F)(F)F)ccc1F` , what is its reported pIC50? > 7.00

Which pIC50 value is on record for `O=C(Nc1ccc(Oc2ccc3[nH]c(NC(=O)c4ccc5[nH]cnc5c4)nc3c2)cc1)Nc1cc(C(F)(F)F)ccc1F` ? > 7.00
